The reader will find reported IC50 values listed item by item below.
target: UniProt:Q96CP6; assay: Displacement of tert-butyl 2-(4-((3-(4-(3-((2-(2,6-dioxopiperidin-3-yl)-1,3-dioxoisoindolin-4-yl)amino)propoxy)butoxy)propyl)carbamoyl)benzamido)-3a,6,7,7a-tetrahydrothiazolo[5,4-c]pyridine-5(4H)-carboxylate from aster A (unknown origin) assessed as change in fluorescence intensity
Quick reminder: number only, in nM, skip the unit.

molecular-string: Cc1ncsc1-c1ccc(CNC(=O)[C@H]2C[C@H](O)CN2C(=O)[C@@H](NC(=O)CCCCCCNC(=O)c2ccc(C(=O)Nc3nc4c(s3)CN(C(=O)OC(C)(C)C)CC4)cc2)C(C)(C)C)cc1
IC50 / nM: 2750
--
molecular-string: Cc1ncsc1-c1ccc(CNC(=O)[C@H]2C[C@H](O)CN2C(=O)[C@@H](NC(=O)COCCOCCNC(=O)c2ccc(C(=O)Nc3nc4c(s3)CN(C(=O)OC(C)(C)C)CC4)cc2)C(C)(C)C)cc1
IC50 / nM: 1470

Given the entry CC(C)Oc1ccc(C(=O)Nc2nc3c(s2)CN(C(=O)OC(C)(C)C)CC3)cc1 , what IC50 was observed with UniProt:Q96CP6?
1180

---

target: Protein Aster-A (Homo sapiens) (UniProt Q96CP6); experiment: Binding affinity to aster A (unknown origin) assessed as change in melting temperature by differential scanning fluorimetry analysis
compounds and their reported ΔTm
Report only the number, with the unit °C understood.

compound: CC(C)Oc1ccc(C(=O)Nc2nc3c(s2)CN(C(=O)OC(C)(C)C)CC3)cc1
unit-label: °C
ΔTm: 6.8
--
compound: Cc1ncsc1-c1ccc(CNC(=O)[C@H]2C[C@H](O)CN2C(=O)[C@@H](NC(=O)CCCCCCCCCNC(=O)c2ccc(C(=O)Nc3nc4c(s3)CN(C(=O)OC(C)(C)C)CC4)cc2)C(C)(C)C)cc1
unit-label: °C
ΔTm: 1.6
--
compound: CC(C)(C)OC(=O)NCCOCCOCCNc1cccc2c1C(=O)N(C1CCC(=O)NC1=O)C2=O (configuration not stated)
unit-label: °C
ΔTm: 0.3
--
compound: CC(C)(C)OC(=O)N1CCC2N=C(NC(=O)c3ccc(C(=O)NCCOCCOCCNc4cccc5c4C(=O)N(C4CCC(=O)NC4=O)C5=O)cc3)SC2C1 (configuration not stated)
unit-label: °C
ΔTm: 4
--
compound: CCN(CC)CCO[C@H]1CC[C@@]2(C)C(=CC[C@@H]3[C@@H]2CC[C@]2(C)C(=O)CC[C@@H]32)C1
unit-label: °C
ΔTm: 5.6

Record request: ΔTm value, item Cc1ncsc1-c1ccc(CNC(=O)[C@H]2C[C@H](O)CN2C(=O)[C@@H](NC(=O)CCCCCCNC(=O)c2ccc(C(=O)Nc3nc4c(s3)CN(C(=O)OC(C)(C)C)CC4)cc2)C(C)(C)C)cc1
3.6

Recorded ΔTm of CC(C)(C)OC(=O)N1CCC2N=C(NC(=O)c3ccc(C(=O)NCCCCCCNc4cccc5c4C(=O)N(C4CCC(=O)NC4=O)C5=O)cc3)SC2C1 (configuration not stated) , please.
3.2

---

Listed here: items and their measured pKd.
target: Protein Aster-A (Homo sapiens, UniProt Q96CP6); test: Binding affinity to aster A (unknown origin) by fluorescence polarization method
Sequence (Q96CP6 whole entry): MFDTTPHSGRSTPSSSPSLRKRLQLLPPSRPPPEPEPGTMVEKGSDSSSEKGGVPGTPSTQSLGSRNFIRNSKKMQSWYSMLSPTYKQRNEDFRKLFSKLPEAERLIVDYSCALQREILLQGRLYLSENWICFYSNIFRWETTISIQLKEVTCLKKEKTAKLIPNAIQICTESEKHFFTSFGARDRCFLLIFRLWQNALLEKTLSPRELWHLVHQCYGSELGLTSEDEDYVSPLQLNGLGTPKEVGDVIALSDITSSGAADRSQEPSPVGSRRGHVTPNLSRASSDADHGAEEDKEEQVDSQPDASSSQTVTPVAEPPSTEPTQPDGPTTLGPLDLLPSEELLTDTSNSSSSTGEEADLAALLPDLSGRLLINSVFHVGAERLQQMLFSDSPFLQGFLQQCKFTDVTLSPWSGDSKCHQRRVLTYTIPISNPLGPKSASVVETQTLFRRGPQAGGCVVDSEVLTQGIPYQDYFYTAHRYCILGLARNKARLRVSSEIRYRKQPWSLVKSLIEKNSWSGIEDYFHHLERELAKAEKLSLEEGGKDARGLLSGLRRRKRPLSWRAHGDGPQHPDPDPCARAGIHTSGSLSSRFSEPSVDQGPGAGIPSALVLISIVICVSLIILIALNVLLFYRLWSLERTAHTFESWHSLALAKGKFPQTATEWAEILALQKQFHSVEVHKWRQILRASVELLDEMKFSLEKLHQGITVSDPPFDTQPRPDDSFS
pKd: −log10 of the molar value.

compound: Nc1cccc2c1C(=O)N(C1CCC(=O)NC1=O)C2=O (stereo not drawn) [POMALIDOMIDE]
observed-value: < 5.30
//
compound: CC(C)(C)OC(=O)NCCOCCOCCNc1cccc2c1C(=O)N(C1CCC(=O)NC1=O)C2=O (stereo not drawn)
observed-value: < 5.30

Kindly state the measured pKd obtained for CC(C)(C)OC(=O)N1CCC2N=C(NC(=O)c3ccc(C(=O)NCCCCCCCCCCNc4cccc5c4C(=O)N(C4CCC(=O)NC4=O)C5=O)cc3)SC2C1 (stereo not drawn) with Protein Aster-A (Homo sapiens, UniProt Q96CP6).
< 5.30
